System: ddy strain of male mice
Assay: Acute toxicity (oral, general symptom and death observed for 7 days)
Format: in vivo
Conditions: 2000 mg/kg oral, 7 days
Task for the reader: assign each of the following compounds its reported Acute toxicity, death number of mice/number of mice tested.

Asked: Dear colleague, I am looking for the recorded Acute toxicity, death number of mice/number of mice tested of the following compound: `C=CCNC(=O)N(C)C(=O)Nc1ccccc1`
Given back: 4/4

Asked: Dear colleague, I am looking for the recorded Acute toxicity, death number of mice/number of mice tested of the following compound: `CONC(=O)N(C)C(=O)Nc1ccccc1`
Given back: 4/4

Asked: Dear colleague, I am looking for the recorded Acute toxicity, death number of mice/number of mice tested of the following compound: `CCNC(=O)NC(=O)Nc1ccccn1`
Given back: 3/4

Asked: Dear colleague, I am looking for the recorded Acute toxicity, death number of mice/number of mice tested of the following compound: `CNC(=O)N(C)C(=O)Nc1ccccc1C(F)(F)F`
Given back: 3/4

Asked: Dear colleague, I am looking for the recorded Acute toxicity, death number of mice/number of mice tested of the following compound: `COCCNC(=O)N(C)C(=O)Nc1ccccc1`
Given back: 4/4

Asked: Dear colleague, I am looking for the recorded Acute toxicity, death number of mice/number of mice tested of the following compound: `CN(C(=O)NCCC#N)C(=O)Nc1ccccc1`
Given back: 3/4

Asked: Dear colleague, I am looking for the recorded Acute toxicity, death number of mice/number of mice tested of the following compound: `CNC(=O)N(C)C(=O)Nc1ccccc1F`
Given back: 0/4

Asked: Dear colleague, I am looking for the recorded Acute toxicity, death number of mice/number of mice tested of the following compound: `CN(C(=O)Nc1ccccc1)C(=O)NC(C)(C)C`
Given back: 0/4

Asked: Dear colleague, I am looking for the recorded Acute toxicity, death number of mice/number of mice tested of the following compound: `CC(C)NC(=O)N(C)C(=O)Nc1ccccc1`
Given back: 0/4

Asked: Dear colleague, I am looking for the recorded Acute toxicity, death number of mice/number of mice tested of the following compound: `CN(C(=O)Nc1ccccc1)C(=O)Nc1ccccc1`
Given back: 0/4

Asked: Dear colleague, I am looking for the recorded Acute toxicity, death number of mice/number of mice tested of the following compound: CN(C(=O)NO)C(=O)Nc1ccccc1 [compound 62, 1-Hydroxy-3-methyl-5-phenylbiuret]
Given back: 1/4

Asked: Dear colleague, I am looking for the recorded Acute toxicity, death number of mice/number of mice tested of the following compound: `CN(C(=O)NCC(C)(C)O)C(=O)Nc1ccccc1`
Given back: 2/4

Asked: Dear colleague, I am looking for the recorded Acute toxicity, death number of mice/number of mice tested of the following compound: `CCNC(=O)NC(=O)Nc1ccccc1`
Given back: 0/4

Asked: Dear colleague, I am looking for the recorded Acute toxicity, death number of mice/number of mice tested of the following compound: `CCNC(=O)N(C)C(=O)Nc1ccc(C)cc1`
Given back: 3/4

Asked: Dear colleague, I am looking for the recorded Acute toxicity, death number of mice/number of mice tested of the following compound: `CCNC(=O)N(C)C(=O)Nc1ccc(O)cc1`
Given back: 0/4

Asked: Dear colleague, I am looking for the recorded Acute toxicity, death number of mice/number of mice tested of the following compound: `CCNC(=O)N(C)C(=O)Nc1ccc(OC)cc1`
Given back: 4/4

Asked: Dear colleague, I am looking for the recorded Acute toxicity, death number of mice/number of mice tested of the following compound: CCC(C)NC(=O)N(C)C(=O)Nc1ccccc1 (stereo not shown)
Given back: 0/4

Asked: Dear colleague, I am looking for the recorded Acute toxicity, death number of mice/number of mice tested of the following compound: `CNC(=O)N(C)C(=O)NCc1ccccn1`
Given back: 2/4

Asked: Dear colleague, I am looking for the recorded Acute toxicity, death number of mice/number of mice tested of the following compound: `CCNC(=O)N(C)C(=O)Nc1ccc(F)cc1`
Given back: 4/4

---

Assay: Acute toxicity (oral, general symptom and death observed for 7 days)
Assay type: in vivo, mice (ddy strain, male)
Conditions: mouse, in vivo; oral, mice, 7 days observation (Δ values); read-out: Acute toxicity, 50% lethal dose LD50
Task for the reader: assign each of the following molecules its reported LD50 at 168 h.
Number only, in mg/kg; omit the unit.

Asked: Dear colleague, I am looking for the recorded LD50 at 168 h of the following molecule: `CCNC(=O)N(C)C(=O)Nc1cccs1`
Given back: 559

Asked: Dear colleague, I am looking for the recorded LD50 at 168 h of the following molecule: `CNC(=O)N(C)C(=O)Nc1ncccn1`
Given back: 1400

Asked: Dear colleague, I am looking for the recorded LD50 at 168 h of the following molecule: `CNC(=O)N(C)C(=O)Nc1ccncc1`
Given back: 1100

Asked: Dear colleague, I am looking for the recorded LD50 at 168 h of the following molecule: `CCNC(=O)N(C)C(=O)Nc1cc(OC)c(OC)c(OC)c1`
Given back: 749

Asked: Dear colleague, I am looking for the recorded LD50 at 168 h of the following molecule: `CNC(=O)N(C)C(=O)Nc1ccc(Cl)cc1`
Given back: 1240

Asked: Dear colleague, I am looking for the recorded LD50 at 168 h of the following molecule: `CNC(=O)N(C)C(=O)Nc1ccc2c(c1)OCO2`
Given back: 1080

Asked: Dear colleague, I am looking for the recorded LD50 at 168 h of the following molecule: `C=CCNC(=O)NC(=O)Nc1ccccc1`
Given back: 1400
